src = patent US20140315886A1

Quick record of pIC50 values for purified STEP46 enzyme (Homo sapiens).
pIC50: −log10 of the molar value.

Measured pIC50, CNc1nc(-c2cccnc2)nc2c(OC)cc(-c3ccc(F)cc3F)cc12 : > 6.00

Measured pIC50, Fc1cncc(Nc2nc(-c3cccnc3)nc3cc(Cl)ccc23)c1 : 5.00 to 6.00

Measured pIC50, COc1ccc2nc(-c3cccnc3)nc(Nc3ccc(F)nc3)c2c1 : 5.00 to 6.00

Measured pIC50, CNc1nc(-c2cccnc2)nc2cc(OC(F)(F)F)c(-c3cccc(F)c3F)cc12 : 5.00 to 6.00

Measured pIC50, Clc1ccc2c(c1)CCN2c1nc(-c2cccnc2)nc2cc(Br)ccc12 : 5.00 to 6.00

Measured pIC50, Fc1ccc(-c2ccc3nc(-c4cccnc4)nc(-c4cncs4)c3c2)c(F)c1 : > 6.00

Measured pIC50, CNc1nc(-c2cccnc2)nc2ccc(-c3ccc(F)cc3F)c(OC)c12 : 5.00 to 6.00

Measured pIC50, CNc1nc(-c2cccnc2)nc2ccc(-c3cccc4oc(=O)[nH]c34)cc12 : > 6.00

Measured pIC50, c1ccc(CNc2nc(-c3cccnc3)nc3ccc(-c4ccco4)cc23)nc1 : 5.00 to 6.00
